Source listed as ChEMBL document CHEMBL1125985.

Target: Tubulin (Bos taurus, UniProt Q6B856+Q862L2+Q862F3)
Assay: In vitro inhibition of purified bovine brain tubulin polymerisation in the absence of microtubule-associated proteins.
This listing pairs molecules with measured IC50.
metric: IC50 (M)

molecule | metric | value-prefix | reported-value
COc1cc2c(cc1O)CCc1cc(OC)c(OC)c(OC)c1-2 | IC50 | = | 0.000104
COc1cc(Cc2ccc3c(c2)OCO3)cc(OC)c1OC | IC50 | = | 0.000067
COc1ccc(CCCc2cc(OC)c(OC)c(OC)c2)cc1O | IC50 | = | 2.4e-06
COc1ccc(-c2ccc3c(c2)OCO3)c(OC)c1OC | IC50 | = | 0.00015
COc1cc2c(cc1O)CCCc1cc(OC)c(OC)c(OC)c1-2 | IC50 | = | 5.3e-06
COc1cc(C2CCc3cc4c(cc32)OCO4)cc(OC)c1OC (stereo unspecified) | IC50 | = | 0.000012
COc1cc(-c2ccc(OC)c(OC)c2OC)ccc1O | IC50 | = | 0.000098
COc1ccc(CCc2cc(OC)c(OC)c(OC)c2)cc1O | IC50 | = | 1.4e-06
COc1ccc(-c2ccc(OC)c(=O)cc2)c(OC)c1OC | IC50 | = | 7.5e-06
COc1cc(C2CCCc3cc4c(cc32)OCO4)cc(OC)c1OC (stereo unspecified) | IC50 | = | 2.4e-06
COc1ccc(CC(OC(C)=O)c2cc(OC)c(OC)c(OC)c2)cc1O (stereo unspecified) | IC50 | = | 5e-06
COc1cc2c(cc1O)CCCCc1cc(OC)c(OC)c(OC)c1-2 | IC50 | > | 0.000125
COc1ccc(CCCCc2cc(OC)c(OC)c(OC)c2)cc1O | IC50 | = | 5.8e-06
COc1cc2c(c(OC)c1OC)C(c1ccc3c(c1)OCO3)CC2 (stereo unspecified) | IC50 | > | 0.0002
COc1cc2c(c(OC)c1OC)C(c1ccc3c(c1)OCO3)CCC2 (stereo unspecified) | IC50 | > | 0.0002
COc1ccc(Cc2cc(OC)c(OC)c(OC)c2)cc1O | IC50 | = | 1.5e-06
